Hello, the source for this data is paper PMC8533149, in case you need it.

test system: HIV-1 LTR-III G-quadruplex (FAM/TAMRA-labeled LTR-III); assay: FRET melting assay, LTR-III G4; type: binding; conditions: Table S1 primary screening, ligand:ODN 50:1, singlicate
The entries below are paired with their reported LTR-III ΔTm.
Please reply with the bare figure in °C and do not write the unit itself.

Recorded LTR-III ΔTm, per entry:
{"columns": ["Molecule", "Unit label", "LTR-III ΔTm"],
 "data": [
  ["CN1C(=O)C(=Cc2ccc(OCC(NC(=O)OC(C)(C)C)C(=O)O)cc2)N=C1c1ccccc1 (stereo not shown) [GR 161]", "°C", -0.2],
  ["COc1cc(O)ccc1C=C1N=C(C=Cc2cc(Cl)nc(Cl)c2)N(C)C1=O [N 960b]", "°C", 0.7],
  ["O=C(O)c1ccc(-c2ccccc2)cc1 [X 26]", "°C", -0.1],
  ["COc1ccc(CN(C(C)=O)C(C)C2=NC(=Cc3ccc(O)cc3)C(=O)N2C)cc1 (stereo not shown) [X 23]", "°C", 0.5],
  ["CCN(CC)c1ccc(C=C2N=C(C)N(C)C2=O)cc1 [GC 04]", "°C", 0],
  ["CC(C)OC(=O)c1noc(=O)c(O)c1-c1cccc(C(F)(F)F)c1 [SA 305B]", "°C", -0.5],
  ["CC1=NC(=Cc2c[nH]c3ccccc23)C(=O)N1C [GC 07]", "°C", -0.4],
  ["COc1cc(/C=C2\\N=C(C)N(C)C2=O)c(OC)cc1O [N 1036]", "°C", 0.5],
  ["CC1=NC(=Cc2ccc3cc(N4CCOCC4)ccc3c2)C(=O)N1C [X 002]", "°C", -0.6],
  ["COc1ccc(C=C2N=C(C(C)(C)C)N(C)C2=O)cc1 [M 440]", "°C", -0.1]
]}

Value of measured LTR-III ΔTm for the entry CC1=NC(=Cc2ccc([N+](=O)[O-])cc2)C(=O)N1C1CCCCC1 [ZS 146] : 0.2

Value of measured LTR-III ΔTm for the entry COc1ccc2cc(OC)c(C=C3N=C(C)N(C)C3=O)cc2c1 [SA 410] : -0.2

Value of measured LTR-III ΔTm for the entry CC1=NC(=Cc2ccc(O)c(C#N)c2)C(=O)N1C [M 2489.2] : -0.5

Value of measured LTR-III ΔTm for the entry Oc1cccc2nc3ccccc3nc12 [M 1255] : -0.6

Value of measured LTR-III ΔTm for the entry COc1ccc(C(N)=C2N=C(C)N(C)C2=O)cc1 [ZS 99] : -0.2

###

Tested on: HIV-1 LTR-III G-quadruplex (FAM/TAMRA-labeled LTR-III)
Test: FRET melting assay, LTR-III G4
Assay type: binding
Conditions: Table S1 primary screening, ligand:ODN 50:1, singlicate
Description: To evaluate stabilizing properties of the ligands in a complex with oligodeoxyribonucleotides (ODNs) melting with fluorescence registration was used. […] Samples were analyzed using DTprime qPCR system (DNA-Technology LLC, Moscow, Russia). Fluorescence was registered by detection of FAM emission at 520 nm upon excitation at 495 nm in the temperature range of 30–95 °C with 1 °C/min gradient. […]
The entries below are paired with their reported LTR-III ΔTm.
Please reply with the bare figure in °C and do not write the unit itself.

Recorded LTR-III ΔTm, per entry:
{"columns": ["Compound", "LTR-III ΔTm / °C"],
 "data": [
  ["COc1ccc(C=C2N=C(Nc3ccc(C#N)cc3)N(C)C2=O)cc1 [SA 179]", 0.7],
  ["COc1cc(/C=C2\\N=C(C)N(C)C2=O)cc(OC)c1O [N 979]", -0.2],
  ["COC(=O)c1noc(C(=O)NCc2ccccc2)c1-c1ccc(OC)cc1 [SA 561D]", -0.4],
  ["COc1ccc(/C=C2\\N=C(CC(C)C)C(=O)N(O)C2=O)cc1 [M 813]", 2.9],
  ["COc1ccc(C=C2N=C(Nc3ccc(Br)cc3)N(C)C2=O)cc1 [SA 158]", 0.2]
]}

Let's switch to this compound now.
Value of measured LTR-III ΔTm for the entry CN1C(=O)C(=Cc2ccc(C#N)cc2)N=C1Nc1ccccc1 [M 2385a] : -0.1
